# measuredTarget: human αVβ6 (Homo sapiens, UniProt P06756+P18564)
# Sequence (P06756 31-992 limits assumed): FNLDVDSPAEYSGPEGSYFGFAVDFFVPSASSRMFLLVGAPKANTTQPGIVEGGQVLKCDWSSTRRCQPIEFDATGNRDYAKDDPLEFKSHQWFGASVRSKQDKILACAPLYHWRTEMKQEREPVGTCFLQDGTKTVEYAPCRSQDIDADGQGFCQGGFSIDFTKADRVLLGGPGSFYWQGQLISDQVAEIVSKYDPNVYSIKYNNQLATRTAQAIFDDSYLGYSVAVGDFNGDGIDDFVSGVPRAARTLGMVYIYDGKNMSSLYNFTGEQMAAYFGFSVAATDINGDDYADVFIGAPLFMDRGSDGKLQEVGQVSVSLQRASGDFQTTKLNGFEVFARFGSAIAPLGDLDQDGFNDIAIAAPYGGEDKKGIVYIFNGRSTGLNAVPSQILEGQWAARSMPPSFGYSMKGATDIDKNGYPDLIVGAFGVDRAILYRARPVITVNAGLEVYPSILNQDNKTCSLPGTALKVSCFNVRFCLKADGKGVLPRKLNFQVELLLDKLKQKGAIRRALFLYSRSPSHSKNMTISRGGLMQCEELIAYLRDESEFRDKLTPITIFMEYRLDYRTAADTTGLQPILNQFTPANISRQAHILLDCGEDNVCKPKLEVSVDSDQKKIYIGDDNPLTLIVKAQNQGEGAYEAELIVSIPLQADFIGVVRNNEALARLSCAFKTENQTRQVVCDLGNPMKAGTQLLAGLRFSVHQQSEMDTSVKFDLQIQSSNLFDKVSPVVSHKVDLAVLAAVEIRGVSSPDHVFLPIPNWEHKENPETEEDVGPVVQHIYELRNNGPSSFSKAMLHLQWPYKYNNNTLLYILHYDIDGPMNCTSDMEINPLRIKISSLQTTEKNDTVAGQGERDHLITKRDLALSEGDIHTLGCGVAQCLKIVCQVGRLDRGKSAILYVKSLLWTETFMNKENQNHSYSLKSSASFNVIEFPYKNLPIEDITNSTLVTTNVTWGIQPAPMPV
# Sequence (P18564 22-707 limits assumed): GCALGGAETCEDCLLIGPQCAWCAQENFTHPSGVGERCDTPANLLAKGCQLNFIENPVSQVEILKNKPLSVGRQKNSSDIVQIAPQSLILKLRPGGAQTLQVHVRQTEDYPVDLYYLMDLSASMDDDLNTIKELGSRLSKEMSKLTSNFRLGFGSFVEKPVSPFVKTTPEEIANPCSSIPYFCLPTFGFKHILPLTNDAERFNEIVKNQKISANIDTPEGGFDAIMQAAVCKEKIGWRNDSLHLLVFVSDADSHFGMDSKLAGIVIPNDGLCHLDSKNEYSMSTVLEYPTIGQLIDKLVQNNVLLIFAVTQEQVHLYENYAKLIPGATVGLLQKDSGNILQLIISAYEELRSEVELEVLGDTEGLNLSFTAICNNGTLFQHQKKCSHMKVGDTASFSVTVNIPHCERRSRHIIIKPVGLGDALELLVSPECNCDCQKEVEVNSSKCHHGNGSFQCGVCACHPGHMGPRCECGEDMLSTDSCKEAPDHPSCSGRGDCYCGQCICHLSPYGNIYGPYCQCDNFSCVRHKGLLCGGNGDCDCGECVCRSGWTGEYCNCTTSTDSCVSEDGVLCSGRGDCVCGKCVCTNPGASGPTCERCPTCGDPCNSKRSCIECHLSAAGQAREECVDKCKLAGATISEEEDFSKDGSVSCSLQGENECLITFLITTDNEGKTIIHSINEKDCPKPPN
# measurementNotes: human αVβ6 HTRF binding assay
# Source text: All binding assays used the HTRF (homogeneous time resolved fluorescence) technology from Cisbio International, therefore all assays are described as HTRF binding assays. The assay results for the Examples are listed above together with the characterization data. The HTRF binding assays are established for the following integrins: human αVβ6, human αVβ1, human αVβ3, human αVβ5, and human αVβ8. […]
Labelling: IC50 reported below 10 nM becomes Y; at or above becomes N.

Here's what some known entries look like.
O=C(O)CC(NC(=O)c1cn(CCCc2ccc3c(n2)NCCC3)nc1CO)c1cc(Cl)cc(Cl)c1 (stereo not drawn) | N
Cc1ccc(C(CC(=O)O)NC(=O)c2cnn(CCc3ccc4c(n3)NCCC4)c2CO)cc1 (stereo not drawn) | N

I wonder whether N#Cc1cccc(C(CC(=O)O)NC(=O)c2cnn(CCc3ccc4c(n3)NCCC4)c2CO)c1 (stereo not drawn) has IC50 below 10 nM. Can you tell?
N

For this compound, is IC50 lower than 10 nM? CC(C)(C)c1cc(Br)cc([C@H](CC(=O)O)NC(=O)c2cnn(Cc3ccc4c(n3)NCCC4)c2)c1
N

Record CC(C)COC(=O)N[C@@H](CNC(=O)c1cnn(CCc2ccc3c(n2)NCCC3)c1)C(=O)O : is its IC50 strictly below 10 nM?
Y

Lab note: confirm whether the reported IC50 for this compound is below 10 nM, equality not counting. compound: COC(=O)N[C@@H](CNC(=O)c1cnn(CCc2ccc3c(n2)NCCC3)c1)C(=O)O
N

Here's an entry: O=C(O)CC(NC(=O)c1cn(CCc2ccc3c(n2)NCCC3)nc1CO)c1cc(Cl)cc(Cl)c1 (stereo not drawn) . Is its IC50 below 10 nM?
N

I wonder whether O=C(NC[C@H](NS(=O)(=O)Cc1ccc(Cl)cc1Cl)C(=O)O)c1cnn(CCc2ccc3c(n2)NCCC3)c1 has IC50 below 10 nM. Can you tell?
Y

IC50 strictly < 10 nM for this compound? O=C(O)C[C@H](NC(=O)c1cn(CCc2ccc3c(n2)NCCC3)cn1)c1cc(Cl)cc(Cl)c1
N

Determine if Cc1cccc(CS(=O)(=O)N[C@@H](CNC(=O)c2cnn(CCc3ccc4c(n3)NCCC4)c2)C(=O)O)c1 shows IC50 strictly lower than 10 nM.
N

# check: IC50 < 10 nM for CC(C)(C)c1cc(Br)cc([C@H](CC(=O)O)NC(=O)c2cnn(CCCc3ccc4c(n3)NCCC4)c2)c1
N

Determine whether this compound shows IC50 lower than 10 nM (ties excluded): Cc1nn(CCc2ccc3c(n2)NCCC3)cc1C(=O)NC(CC(=O)O)c1cc(Cl)cc(Cl)c1 (stereo not drawn)
N

Check if IC50 falls below 10 nM for COc1ccc([C@H](CC(=O)O)NC(=O)c2cnn(Cc3ccc4c(n3)NCCC4)c2)cn1 .
N

Say whether its IC50 is strictly beneath 10 nM. Entry: CN(C(=O)c1cnn(CCc2ccc3c(n2)NCCC3)c1)[C@H](CC(=O)O)c1cc(Cl)cc(Cl)c1
N
